# STUDY_SYSTEM: human CRTH2 (Homo sapiens, UniProt Q9Y5Y4, V204A)
# Sequence (Q9Y5Y4 whole entry V204A): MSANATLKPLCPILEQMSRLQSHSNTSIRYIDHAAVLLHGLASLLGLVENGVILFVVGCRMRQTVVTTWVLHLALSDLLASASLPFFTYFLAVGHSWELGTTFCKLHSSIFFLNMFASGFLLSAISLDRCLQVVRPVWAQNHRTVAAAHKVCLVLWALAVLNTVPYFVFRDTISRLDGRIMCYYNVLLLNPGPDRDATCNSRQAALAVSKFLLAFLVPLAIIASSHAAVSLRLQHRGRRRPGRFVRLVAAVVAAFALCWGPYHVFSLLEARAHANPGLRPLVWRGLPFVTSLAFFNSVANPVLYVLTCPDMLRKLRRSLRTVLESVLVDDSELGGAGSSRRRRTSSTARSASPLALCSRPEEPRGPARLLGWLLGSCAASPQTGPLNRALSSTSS
# MEASUREMENT_PROTOCOL: Functional antagonist BRET assay on HEK293 cells stably expressing human CRTH2-Rluc and GFP2-β-arr2
# Format: cell-based
# Parameters: expressed in transfected cells
# MEASUREMENT_CONDITIONS: BRET, antagonist incubated 15 minutes prior to agonist; read-out: Antag. IC50
pIC50: −log10 of the molar value.
ENDPOINT: pIC50

Answered examples (5):
INSERT INTO assay_data (molecule, study_system, value_measured) VALUES
  ('CCOc1ccc(OCC(=O)O)c(C(=O)c2cnn(-c3ccccc3)c2)c1', 'human CRTH2 (Homo sapiens, UniProt Q9Y5Y4, V204A)', '< 5.30'),
  ('O=C(O)COc1ccc(Br)cc1-c1noc(-c2ccccc2Cl)n1', 'human CRTH2 (Homo sapiens, UniProt Q9Y5Y4, V204A)', '> 6.30'),
  ('Cc1ccc(-n2cc(C(=O)c3cc(Br)ccc3OC(C)C(=O)O)cn2)c(Br)c1 (centres unmarked)', 'human CRTH2 (Homo sapiens, UniProt Q9Y5Y4, V204A)', '> 6.30'),
  ('O=C(O)COc1ccc(Br)cc1C(=O)c1cnn(-c2ccc(Br)cc2Cl)c1', 'human CRTH2 (Homo sapiens, UniProt Q9Y5Y4, V204A)', '> 6.30'),
  ('C[C@H](Oc1ccc(Br)cc1C(=O)c1cnn(-c2ccccc2)c1)C(=O)O [(S)-D37]', 'human CRTH2 (Homo sapiens, UniProt Q9Y5Y4, V204A)', '> 6.30');

Input: Fill in: pIC50 of O=C(O)COc1ccc(Br)cc1-c1csc(-c2ccccc2)n1 is ___
Output: > 6.30

Input: Fill in: pIC50 of CC(Oc1ccc(Br)cc1C(=O)c1cnn(-c2c(Cl)cc(Cl)cc2Cl)c1)C(=O)O (centres unmarked) is ___
Output: > 6.30

Input: Fill in: pIC50 of O=C(O)COc1ccccc1C=NNC(=O)c1ccc2ccccc2c1O is ___
Output: > 6.30

###

# STUDY_SYSTEM: human CRTH2 (Homo sapiens, UniProt Q9Y5Y4, V204A)
# MEASUREMENT_PROTOCOL: Functional antagonist BRET assay on HEK293 cells stably expressing human CRTH2-Rluc and GFP2-β-arr2
# Type: cell-based
# Set-up: expressed in transfected cells
# MEASUREMENT_CONDITIONS: BRET, antagonist incubated 15 minutes prior to agonist; read-out: Antag. IC50
ENDPOINT: IC50

Answered examples (4):
INSERT INTO measurements (compound, endpoint, value_measured) VALUES
  ('CC(Oc1ccc(Br)cc1C(=O)c1cnn(-c2ccccc2C(C)C)c1)C(=O)O (stereo not shown) [D79]', 'IC50', '< 0.5 µM'),
  ('O=C(O)COc1ccc(Br)cc1CN1CC(=O)N(Cc2ccc(Cl)cc2)C1=O [D139]', 'IC50', '< 0.5 µM'),
  ('O=C(O)COc1ccc(Br)cc1-c1coc(-c2ccccc2)n1 [D83]', 'IC50', '> 5 µM'),
  ('Cc1cc(Cl)ccc1-n1cc(C(=O)c2cc(Br)ccc2OC(C)C(=O)O)cn1 (stereo not shown) [D62]', 'IC50', '< 0.5 µM');

Input: // fetch human CRTH2 (Homo sapiens, UniProt Q9Y5Y4, V204A) IC50 for CCc1ccc(OCC(=O)O)c(C(=O)c2cnn(-c3ccccc3Br)c2)c1 [D30]
Output: < 0.5 µM

Input: // fetch human CRTH2 (Homo sapiens, UniProt Q9Y5Y4, V204A) IC50 for O=C(O)COc1ccc(Br)cc1C(=O)c1cnn(-c2ccc(Cl)c(Cl)c2)c1 [D61]
Output: < 0.5 µM

Input: // fetch human CRTH2 (Homo sapiens, UniProt Q9Y5Y4, V204A) IC50 for COc1ccc(-c2cnnc(NN=Cc3ccccc3OCC(=O)O)n2)cc1 [D153]
Output: > 5 µM

###

Readings of IC50 for the listed compounds
# STUDY_SYSTEM: human CRTH2 (Homo sapiens, UniProt Q9Y5Y4, V204A)
# MEASUREMENT_PROTOCOL: Functional antagonist BRET assay on HEK293 cells stably expressing human CRTH2-Rluc and GFP2-β-arr2
# Assay type: cell-based
# Parameters: expressed in transfected cells
# MEASUREMENT_CONDITIONS: BRET, antagonist incubated 15 minutes prior to agonist; read-out: Antag. IC50

Answered examples (3):
INSERT INTO results (compound, study_system, value_measured) VALUES
  ('O=C(O)COc1ccc(Br)cc1-c1noc(-c2ccc(Cl)cc2)n1 [D135]', 'human CRTH2 (Homo sapiens, UniProt Q9Y5Y4, V204A)', '< 500 nM'),
  ('O=C(O)COc1ccc(Br)cc1CN1CC(=O)N(CCc2ccccc2)C1=O [D140]', 'human CRTH2 (Homo sapiens, UniProt Q9Y5Y4, V204A)', '500 to 5000 nM'),
  ('O=C(O)COc1ccc(Br)cc1C(=O)c1cnn(-c2ccccc2C(F)(F)F)c1 [D23]', 'human CRTH2 (Homo sapiens, UniProt Q9Y5Y4, V204A)', '< 500 nM');

Input: Fill in: IC50 of O=C(O)COc1ccc(Br)cc1-c1noc(-c2cccc(Cl)c2)n1 [D136] is ___
Output: < 500 nM
